Experiment Notes: Cytotoxicity
Assay type: cell-based
Conditions Used: mouse, RAW264.7 cells
Measure Name: CC50 (µM)

Smiles Repr: N#Cc1c(-c2ccccc2O)nc(SCC(=O)Nc2cc(F)cc(F)c2)[nH]c1=O
Measure Name: CC50
Val: 105
